Assay: In vivo pharmacokinetic study in rabbits
Details: rabbit, plasma, oral gavage, n = 6
Where a name gives a salt, the structure may show the parent alone.
measured-metric: Tmax (h)

compound="CN(C)CCCC1(c2ccc(F)cc2)OCc2cc(C#N)ccc21 (stereo not shown) [CTH, citalopram hydrobromide]" measured_metric=Tmax units=h reported_value=1
